# run description: Solubility measurements of polymorphic Form I and II in biorelevant fluids
# Type: physicochemical
# condition description: FaSSIF, 37 °C, thermodynamic from solid, 24 h
endpoint: solubility at 24 h

>>> df
                                   molecule            endpoint  recorded_value
0  NC(=O)N1CCC[C@@H](N(C(=O)NCc2ccc(OC(F)(F)F)cc2F)C2CC2)C1 [Form I]  solubility at 24 h       350 µg/mL

====

# run description: Solubility measurements of polymorphic Form I and II in biorelevant fluids
# Type: physicochemical
# condition description: 5% HPBCD/2% TPGS, 25 °C, aqueous with cosolvent or surfactant or cyclodextrin, thermodynamic from solid, 1.5 h
# Text: Example 3: Solubility Measurements of Form I and Form II
endpoint: solubility at 1.5 h

                                   compound  recorded_value
0  NC(=O)N1CCC[C@@H](N(C(=O)NCc2ccc(OC(F)(F)F)cc2F)C2CC2)C1 [Form I]      4960 µg/mL

====

# run description: Solubility measurements of polymorphic Form I and II in biorelevant fluids
# Type: physicochemical
# condition description: 5% HPBCD/2% TPGS, 25 °C, aqueous with cosolvent or surfactant or cyclodextrin, thermodynamic from solid, 3 h
endpoint: solubility at 3 h (µg/mL)

>>> df
                                   compound           endpoint  recorded_value
0  NC(=O)N1CCC[C@@H](N(C(=O)NCc2ccc(OC(F)(F)F)cc2F)C2CC2)C1 [Form I]  solubility at 3 h            5110

====

# run description: Solubility measurements of polymorphic Form I and II in biorelevant fluids
# Assay type: physicochemical
# condition description: FaSSIF, 37 °C, thermodynamic from solid, 1.5 h
endpoint: solubility at 1.5 h (µg/mL)

In [3]: df
Out[3]:
                                   molecule             endpoint  unit_abbrev  recorded_value
0  NC(=O)N1CCC[C@@H](N(C(=O)NCc2ccc(OC(F)(F)F)cc2F)C2CC2)C1 [Form I]  solubility at 1.5 h        µg/mL             360

====

# run description: Solubility measurements of polymorphic Form I and II in biorelevant fluids
# Format: physicochemical
# condition description: FeSSIF, 37 °C, thermodynamic from solid, 24 h
# Description: Example 3: Solubility Measurements of Form I and Form II
endpoint: solubility at 24 h (µg/mL)

                                   molecule            endpoint  unit_abbrev  recorded_value
0  NC(=O)N1CCC[C@@H](N(C(=O)NCc2ccc(OC(F)(F)F)cc2F)C2CC2)C1 [Form II]  solubility at 24 h        µg/mL             720

====

# run description: Solubility measurements of polymorphic Form I and II in biorelevant fluids
# Type: physicochemical
# condition description: SGF, 37 °C, simulated gastric fluid, thermodynamic from solid, 24 h
endpoint: solubility at 24 h (µg/mL)

In [3]: df
Out[3]:
                                   molecule  recorded_value
0  NC(=O)N1CCC[C@@H](N(C(=O)NCc2ccc(OC(F)(F)F)cc2F)C2CC2)C1 [Form I]             370
